Below are compounds with their IC50 as measured on Sodium-dependent dopamine transporter (Rattus norvegicus, UniProt P23977).
Sequence (P23977 whole entry): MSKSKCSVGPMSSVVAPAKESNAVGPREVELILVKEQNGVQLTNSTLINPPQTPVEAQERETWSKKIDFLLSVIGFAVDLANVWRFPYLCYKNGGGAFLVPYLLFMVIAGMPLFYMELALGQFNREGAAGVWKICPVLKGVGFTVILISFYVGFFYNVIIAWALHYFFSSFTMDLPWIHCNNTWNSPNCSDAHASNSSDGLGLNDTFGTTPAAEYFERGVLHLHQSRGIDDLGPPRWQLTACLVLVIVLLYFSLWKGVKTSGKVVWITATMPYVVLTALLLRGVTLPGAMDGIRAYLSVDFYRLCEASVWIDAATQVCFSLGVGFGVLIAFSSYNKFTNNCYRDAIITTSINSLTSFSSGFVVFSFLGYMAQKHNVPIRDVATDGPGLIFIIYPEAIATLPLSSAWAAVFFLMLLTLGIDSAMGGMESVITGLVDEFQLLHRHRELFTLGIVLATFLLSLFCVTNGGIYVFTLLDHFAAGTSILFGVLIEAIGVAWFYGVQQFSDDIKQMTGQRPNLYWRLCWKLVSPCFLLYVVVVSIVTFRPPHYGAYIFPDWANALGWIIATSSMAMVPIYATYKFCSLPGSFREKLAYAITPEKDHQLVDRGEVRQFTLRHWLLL
Write the value in nM as a bare number.

GET /values?item= Fc1ccc(CN[C@H]2CC[C@@H](C(c3ccccc3)c3ccccc3)NC2)cc1 &system= Sodium-dependent dopamine transporter (Rattus norvegicus, UniProt P23977) returns IC50: 33.8

GET /values?item= c1ccc(C(c2ccccc2)[C@H]2CC[C@@H](NCc3cc4ccccc4[nH]3)CN2)cc1 &system= Sodium-dependent dopamine transporter (Rattus norvegicus, UniProt P23977) returns IC50: 95.4

GET /values?item= Fc1ccc(CN[C@@H]2CC[C@H](C(c3ccccc3)c3ccccc3)NC2)cc1F &system= Sodium-dependent dopamine transporter (Rattus norvegicus, UniProt P23977) returns IC50: 63.5

---
GET /values?item= COc1ccc(CN[C@@H]2CC[C@H](C(c3ccccc3)c3ccccc3)NC2)cc1 &system= Sodium-dependent dopamine transporter (Rattus norvegicus, UniProt P23977) returns IC50: 47.5

GET /values?item= c1ccc(C(c2ccccc2)[C@H]2CC[C@@H](NCc3cccs3)CN2)cc1 &system= Sodium-dependent dopamine transporter (Rattus norvegicus, UniProt P23977) returns IC50: 267

GET /values?item= Fc1ccc(CN[C@@H]2CC[C@H](C(c3ccccc3)c3ccccc3)NC2)cc1 &system= Sodium-dependent dopamine transporter (Rattus norvegicus, UniProt P23977) returns IC50: 229

GET /values?item= c1ccc(C(c2ccccc2)[C@H]2CC[C@@H](NCc3csc4ccccc34)CN2)cc1 &system= Sodium-dependent dopamine transporter (Rattus norvegicus, UniProt P23977) returns IC50: 515

GET /values?item= c1ccc(CN[C@@H]2CC[C@H](C(c3ccccc3)c3ccccc3)NC2)cc1 &system= Sodium-dependent dopamine transporter (Rattus norvegicus, UniProt P23977) returns IC50: 114

GET /values?item= Fc1ccc(CCNC2CCC(C(c3ccccc3)c3ccccc3)NC2)cc1 (stereo not given) &system= Sodium-dependent dopamine transporter (Rattus norvegicus, UniProt P23977) returns IC50: 173

GET /values?item= N#Cc1ccc(CN[C@H]2CC[C@@H](C(c3ccccc3)c3ccccc3)NC2)cc1 &system= Sodium-dependent dopamine transporter (Rattus norvegicus, UniProt P23977) returns IC50: 11.3
